Biological target: T1, FLAG-tagged human APRIL (human, UniProt O75888 105-250, limits assumed)
T1 construct: also called FLAG-tagged APRIL; FLAG-APRIL; not shown: FLAG tag
T1 sequence (looked up): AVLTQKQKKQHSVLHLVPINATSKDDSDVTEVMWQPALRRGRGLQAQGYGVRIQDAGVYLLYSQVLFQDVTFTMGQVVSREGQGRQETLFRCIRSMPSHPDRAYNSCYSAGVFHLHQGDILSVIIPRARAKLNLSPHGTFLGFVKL
Experiment: FLAG-APRIL ELISA after 10 min at 70 °C, antibody at 0.316 µg/ml
# label = true (1) if % residual binding after heat treatment (room temperature = 100%) >= 50% else false (0)

BINDER | CAT
VH14_1D.VL15 (antibody, human IgG4, V domains shown, VH14_1 with T74K; Rest is human IgG4 (S241P, Kabat) and human kappa; also called 14_1D.15) VH: QVQLVQSGAEVKKPGASVKVSCKASGYTFTSYVMHWVRQAPGQGLEWMGYINPYNDAPKYNEKFKGRVTMTSDKSASTAYMELSSLRSDDTAVYYCARGLGYALYYAMDYWGQGTTVTVSS VL: DIVMTQSPSTLSASVGDRVTITCKASQNVGNNVAWYQQKPGKAPKLLISSASNRDSGVPSRFSGSGSGTEFTLTISSLQPDDFATYFCQQYNIYPFTFGQGTKLEIK | false (0)
VH14_1G.VL15 (antibody, human IgG4 S228P, kappa, V domains shown, VH14_1 with R67K and V68A; Humanized IgG4 (S241P, Kabat) with human kappa; also called 14_1G.15; 14_1 G.15) VH: QVQLVQSGAEVKKPGASVKVSCKASGYTFTSYVMHWVRQAPGQGLEWMGYINPYNDAPKYNEKFKGKATMTSDTSASTAYMELSSLRSDDTAVYYCARGLGYALYYAMDYWGQGTTVTVSS VL: DIVMTQSPSTLSASVGDRVTITCKASQNVGNNVAWYQQKPGKAPKLLISSASNRDSGVPSRFSGSGSGTEFTLTISSLQPDDFATYFCQQYNIYPFTFGQGTKLEIKR | false (0)
VH14_1.VL15 (antibody, human IgG4, V domains shown, VH14 with R72S; rest is human IgG4 (S241P, Kabat) and human kappa; also called 14_1.15; antibody 14_1.15) VH: QVQLVQSGAEVKKPGASVKVSCKASGYTFTSYVMHWVRQAPGQGLEWMGYINPYNDAPKYNEKFKGRVTMTSDTSASTAYMELSSLRSDDTAVYYCARGLGYALYYAMDYWGQGTTVTVSS VL: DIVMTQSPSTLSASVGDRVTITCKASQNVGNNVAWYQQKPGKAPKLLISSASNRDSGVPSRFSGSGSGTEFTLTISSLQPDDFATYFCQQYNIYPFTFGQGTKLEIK | true (1)
VH14_1E.VL15 (antibody, human IgG4, V domains shown, VH14_1 with Q1E; Rest is human IgG4 (S241P, Kabat) and human kappa; also called 14_1E.15) VH: EVQLVQSGAEVKKPGASVKVSCKASGYTFTSYVMHWVRQAPGQGLEWMGYINPYNDAPKYNEKFKGRVTMTSDTSASTAYMELSSLRSDDTAVYYCARGLGYALYYAMDYWGQGTTVTVSS VL: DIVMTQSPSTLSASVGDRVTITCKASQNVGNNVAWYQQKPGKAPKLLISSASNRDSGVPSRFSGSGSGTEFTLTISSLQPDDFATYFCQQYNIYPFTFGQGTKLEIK | false (0)
VH14.VL15 (antibody, human IgG4 S228P, kappa, V domains shown, Humanized IgG4 (S241P, Kabat) with human kappa, from HEK293T) VH: QVQLVQSGAEVKKPGASVKVSCKASGYTFTSYVMHWVRQAPGQGLEWMGYINPYNDAPKYNEKFKGRVTMTRDTSASTAYMELSSLRSDDTAVYYCARGLGYALYYAMDYWGQGTTVTVSS VL: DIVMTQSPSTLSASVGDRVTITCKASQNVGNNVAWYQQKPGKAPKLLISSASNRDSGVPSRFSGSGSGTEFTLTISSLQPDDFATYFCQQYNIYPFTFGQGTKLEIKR | true (1)
VH14_1C.VL15 (antibody, human IgG4, V domains shown, VH14_1 with M70I; Rest is human IgG4 (S241P, Kabat) and human kappa; also called 14_1C.15) VH: QVQLVQSGAEVKKPGASVKVSCKASGYTFTSYVMHWVRQAPGQGLEWMGYINPYNDAPKYNEKFKGRVTITSDTSASTAYMELSSLRSDDTAVYYCARGLGYALYYAMDYWGQGTTVTVSS VL: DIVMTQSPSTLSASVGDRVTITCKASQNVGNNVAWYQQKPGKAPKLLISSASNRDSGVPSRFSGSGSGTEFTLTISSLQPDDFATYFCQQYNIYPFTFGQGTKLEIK | true (1)
